# target of assay: STK25 (human) (UniProt O00506)
# Sequence (O00506 whole entry, looked up): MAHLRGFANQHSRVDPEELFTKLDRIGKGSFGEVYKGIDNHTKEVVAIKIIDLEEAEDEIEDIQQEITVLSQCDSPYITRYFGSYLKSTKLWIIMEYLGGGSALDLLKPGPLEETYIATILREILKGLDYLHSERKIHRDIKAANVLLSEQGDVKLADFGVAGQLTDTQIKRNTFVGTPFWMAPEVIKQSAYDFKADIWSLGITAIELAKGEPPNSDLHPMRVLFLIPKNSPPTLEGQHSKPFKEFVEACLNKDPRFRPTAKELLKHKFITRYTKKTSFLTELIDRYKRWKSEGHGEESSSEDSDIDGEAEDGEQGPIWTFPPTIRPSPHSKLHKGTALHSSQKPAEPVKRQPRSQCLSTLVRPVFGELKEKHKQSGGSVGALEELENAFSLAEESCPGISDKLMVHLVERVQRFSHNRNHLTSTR
# assay remarks: KINOMEscan competition binding
# test context: compound 10.0 µM
test readout: kinase still bound, per cent of control (%)

In [3]: df
Out[3]:
                                   molecule  value_observed
0  N#Cc1cc(-c2ccnc(Nc3ccc(-n4cnc(-c5cccnc5)n4)cc3)n2)cc(N2CCOCC2)c1              64
1  CCN(CCO)CCCOc1ccc2c(Nc3cc(CC(=O)Nc4cccc(F)c4)[nH]n3)ncnc2c1              66
2  CCOc1cc(N2CCC(O)CC2)ccc1Nc1ncc2c(n1)N(C)c1ccccc1C(=O)N2C             100
3  CCCS(=O)(=O)Nc1ccc(F)c(C(=O)c2c[nH]c3ncc(Cl)cc23)c1F              53
4  Cc1cn(-c2cc(C(=O)Nc3ccc(C)c(NC(=O)c4ccno4)c3)cc(C(F)(F)F)c2)cn1             100
5  COc1cc(C)c(Sc2cnc(NC(=O)c3ccc(CNC(C)C(C)C)cc3)s2)cc1C(=O)N1CCN(C(C)=O)CC1 (centres undefined)             100
6  COc1cc2c(Nc3ccc(NC(=O)c4ccccc4)cc3)ncnc2cc1OCCCN1CCOCC1              63
7  CC1=C(C(=O)Nc2cc3cn[nH]c3cc2F)C(c2ccc(C(F)(F)F)cc2)CC(=O)N1 (centres undefined)              64
8  N#C/C(=C1/Nc2ccccc2S1)c1ccnc(NCCc2cccnc2)n1              60

* * *

# target of assay: UniProtKB O00329
# Sequence (O00329 whole entry, looked up): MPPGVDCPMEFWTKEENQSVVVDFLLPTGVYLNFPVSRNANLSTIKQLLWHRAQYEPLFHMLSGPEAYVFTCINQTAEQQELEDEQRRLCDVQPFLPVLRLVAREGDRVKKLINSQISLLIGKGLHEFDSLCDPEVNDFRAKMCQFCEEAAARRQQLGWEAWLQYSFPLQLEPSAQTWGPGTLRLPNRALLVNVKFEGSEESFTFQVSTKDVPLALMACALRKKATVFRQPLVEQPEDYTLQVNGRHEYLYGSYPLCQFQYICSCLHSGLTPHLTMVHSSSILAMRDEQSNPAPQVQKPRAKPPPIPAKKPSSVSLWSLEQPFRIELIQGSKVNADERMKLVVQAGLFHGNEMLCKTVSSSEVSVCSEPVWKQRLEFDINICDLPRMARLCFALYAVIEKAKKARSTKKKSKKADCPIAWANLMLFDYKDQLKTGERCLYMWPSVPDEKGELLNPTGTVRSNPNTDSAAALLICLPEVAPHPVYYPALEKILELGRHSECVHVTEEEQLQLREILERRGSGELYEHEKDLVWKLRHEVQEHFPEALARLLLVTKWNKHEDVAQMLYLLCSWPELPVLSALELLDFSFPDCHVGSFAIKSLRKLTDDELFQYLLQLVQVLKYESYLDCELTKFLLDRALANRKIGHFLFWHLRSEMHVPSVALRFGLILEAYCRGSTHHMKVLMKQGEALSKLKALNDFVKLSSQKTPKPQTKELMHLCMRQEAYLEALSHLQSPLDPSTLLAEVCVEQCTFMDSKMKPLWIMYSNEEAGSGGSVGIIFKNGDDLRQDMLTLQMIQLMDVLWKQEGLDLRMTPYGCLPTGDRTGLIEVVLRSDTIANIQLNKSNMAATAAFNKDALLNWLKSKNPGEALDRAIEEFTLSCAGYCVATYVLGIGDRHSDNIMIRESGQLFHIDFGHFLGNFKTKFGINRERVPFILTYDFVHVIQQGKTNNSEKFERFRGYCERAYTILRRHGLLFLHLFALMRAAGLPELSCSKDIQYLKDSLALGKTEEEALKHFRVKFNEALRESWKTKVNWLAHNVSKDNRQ
# assay remarks: KINOMEscan competition binding
# test context: compound 10.0 µM
test readout: kinase still bound, per cent of control (%)

                                   compound  value_observed
0  CCN1CCN(Cc2ccc(NC(=O)c3ccc(C)c(/C=C/c4cnc5[nH]ccc5c4OC)c3)cc2C(F)(F)F)CC1              78
1  COc1cc(N2CCC(C(N)=O)CC2)ccc1Nc1nc(N)c(Cl)c(Nc2ccccc2S(=O)(=O)C(C)C)n1             100
2  CCN(CCO)CCCOc1ccc2c(Nc3cc(CC(=O)Nc4cccc(F)c4)[nH]n3)ncnc2c1              88
3  N#Cc1cc(-c2ccnc(Nc3ccc(-n4cnc(-c5cccnc5)n4)cc3)n2)cc(N2CCOCC2)c1             100
4  C=CC(=O)Nc1ccc(C(=O)c2sc(Nc3ccc(N4CCN(C)CC4)cc3OC)nc2N)cc1             100
5  COc1cc(C)c(Sc2cnc(NC(=O)c3ccc(CNC(C)C(C)C)cc3)s2)cc1C(=O)N1CCN(C(C)=O)CC1 (stereo not drawn)             100
6  CNC(=O)Nc1ccc(-c2nc(N3CC4CCC(C3)O4)c3cnn(C4CCC5(CC4)OCCO5)c3n2)cc1             5.7
7  Cc1cn(-c2cc(C(=O)Nc3ccc(C)c(NC(=O)c4ccno4)c3)cc(C(F)(F)F)c2)cn1             100

* * *

Overview of reported kinase still bound, per cent of control across a group of compounds:
# target of assay: JAK2 JH1 catalytic (human) (UniProt O60674)
# Sequence (O60674 whole entry, looked up): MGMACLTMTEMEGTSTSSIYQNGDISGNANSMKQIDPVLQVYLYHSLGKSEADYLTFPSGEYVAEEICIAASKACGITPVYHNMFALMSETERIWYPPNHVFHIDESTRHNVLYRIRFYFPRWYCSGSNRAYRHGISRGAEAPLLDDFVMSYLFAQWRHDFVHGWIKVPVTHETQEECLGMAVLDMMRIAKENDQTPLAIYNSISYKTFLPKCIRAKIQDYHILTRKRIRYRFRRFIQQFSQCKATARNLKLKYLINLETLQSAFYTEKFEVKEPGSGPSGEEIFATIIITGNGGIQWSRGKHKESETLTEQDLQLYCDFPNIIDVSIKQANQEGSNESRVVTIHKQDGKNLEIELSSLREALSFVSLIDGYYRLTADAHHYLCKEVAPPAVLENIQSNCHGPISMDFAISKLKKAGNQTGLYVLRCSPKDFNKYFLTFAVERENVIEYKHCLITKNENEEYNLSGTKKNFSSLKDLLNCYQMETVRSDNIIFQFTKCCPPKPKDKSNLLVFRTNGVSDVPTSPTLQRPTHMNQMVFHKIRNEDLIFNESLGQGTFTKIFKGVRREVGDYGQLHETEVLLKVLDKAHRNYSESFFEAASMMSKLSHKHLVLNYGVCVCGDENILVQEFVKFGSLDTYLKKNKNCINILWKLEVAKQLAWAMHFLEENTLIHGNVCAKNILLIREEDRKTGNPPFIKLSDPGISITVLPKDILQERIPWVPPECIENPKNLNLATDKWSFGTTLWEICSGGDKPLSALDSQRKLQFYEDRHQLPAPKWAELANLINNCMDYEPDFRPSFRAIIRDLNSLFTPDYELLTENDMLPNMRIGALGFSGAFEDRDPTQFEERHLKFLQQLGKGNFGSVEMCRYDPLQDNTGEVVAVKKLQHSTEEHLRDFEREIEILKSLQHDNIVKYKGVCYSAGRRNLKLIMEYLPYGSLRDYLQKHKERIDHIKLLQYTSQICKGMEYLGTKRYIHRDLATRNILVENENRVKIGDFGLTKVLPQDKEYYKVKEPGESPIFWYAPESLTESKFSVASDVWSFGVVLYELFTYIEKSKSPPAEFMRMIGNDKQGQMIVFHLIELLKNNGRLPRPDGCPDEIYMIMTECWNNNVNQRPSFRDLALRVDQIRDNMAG
# assay remarks: KINOMEscan competition binding
# test context: compound 10.0 µM
test readout: kinase still bound, per cent of control (%)

>>> print(df.to_string())
                                    compound  value_observed
 0  CNC(=O)Nc1ccc(-c2nc(N3CC4CCC(C3)O4)c3cnn(C4CCC5(CC4)OCCO5)c3n2)cc1             100
 1  COc1cc(N2CCC(C(N)=O)CC2)ccc1Nc1nc(N)c(Cl)c(Nc2ccccc2S(=O)(=O)C(C)C)n1             100
 2  COc1cc2c(Nc3ccc(NC(=O)c4ccccc4)cc3)ncnc2cc1OCCCN1CCOCC1              72
 3  COc1cc(C)c(Sc2cnc(NC(=O)c3ccc(CNC(C)C(C)C)cc3)s2)cc1C(=O)N1CCN(C(C)=O)CC1 (stereo not drawn)             100
 4  O=c1[nH]c2ccccc2n1C1CCN(Cc2ccc(-c3nc4cc5[nH]cnc5cc4nc3-c3ccccc3)cc2)CC1              67
 5  CCN1CCN(Cc2ccc(NC(=O)c3ccc(C)c(/C=C/c4cnc5[nH]ccc5c4OC)c3)cc2C(F)(F)F)CC1              12
 6         COc1cc2ncnc(Nc3cccc(Cl)c3)c2cc1OC              46
 7  N#Cc1cc(-c2ccnc(Nc3ccc(-n4cnc(-c5cccnc5)n4)cc3)n2)cc(N2CCOCC2)c1               0
 8  CCCS(=O)(=O)Nc1ccc(F)c(C(=O)c2c[nH]c3ncc(Cl)cc23)c1F              44
 9  N#C/C(=C1/Nc2ccccc2S1)c1ccnc(NCCc2cccnc2)n1              45
10  CC(=O)c1c(C)c2cnc(Nc3ccc(N4CCNCC4)cn3)nc2n(C2CCCC2)c1=O            0.65
11  CCc1nc(-c2cccc(C)c2)c(-c2ccnc(NC(=O)c3ccccc3)c2)s1             100
12  CC1=C(C(=O)Nc2cc3cn[nH]c3cc2F)C(c2ccc(C(F)(F)F)cc2)CC(=O)N1 (stereo not drawn)              12
13  CCN(CCO)CCCOc1ccc2c(Nc3cc(CC(=O)Nc4cccc(F)c4)[nH]n3)ncnc2c1              58
14  C=CC(=O)Nc1ccc(C(=O)c2sc(Nc3ccc(N4CCN(C)CC4)cc3OC)nc2N)cc1              74
15  Cc1cn(-c2cc(C(=O)Nc3ccc(C)c(NC(=O)c4ccno4)c3)cc(C(F)(F)F)c2)cn1             100
16  COc1ccc(N(C(=O)Oc2cc(C(=O)Nc3cccc(C(F)(F)F)c3)ccc2C)c2ccnc(Nc3ccc(N4CCN(C)CC4)cc3)n2)c(OC)c1             2.3
17  CCOc1cc(N2CCC(O)CC2)ccc1Nc1ncc2c(n1)N(C)c1ccccc1C(=O)N2C             100
